Assay Overview: Cytotoxicity against human PC3 cancer cell line was determined after 1 hr
Type: cell-based
Assay Setup: Cancer cell lines
pIC50: −log10 of the molar value.
Property: pIC50; scope: individual compounds
Readout Type: pIC50

Compound: O=C1c2c(O)ccc(O)c2C(=O)c2c(NCCNCCO)ccc(NCCNCCO)c21 [MITOXANTRONE]
Result Qualifier: =
Data Value: 7.12
--
Compound: COc1ccc2c(c1)c(=O)c1c(NCCCN(C)CCCNc3ccc4c(=O)n(CCN(C)C)c(=O)n5c6ccc(OC)cc6c(=O)c3c45)ccc3c(=O)n(CCN(C)C)c(=O)n2c31
Result Qualifier: =
Data Value: 8.33
--
Compound: CN(C)CCN1Nc2c3ccccc3nc3c(C(=O)NCCCN(C)CCCNC(=O)c4ccc5c6c(c7ccccc7nc46)NN5CCN(C)C)ccc1c23
Result Qualifier: =
Data Value: 7.92
--
Compound: COc1ccc2c(c1)-c1nn(CCN(C)C)c3ccc(C(=O)NCCCN(C)CCCNC(=O)c4ccc5c6c(c7cc(OC)ccc7nc46)NN5CCN(C)C)c(c13)N2
Result Qualifier: <
Data Value: 7.00
--
Compound: CN(C)CCn1c(=O)c2ccc(NCCCN(C)CCCNc3ccc4c(=O)n(CCN(C)C)c(=O)n5c6ccc([N+](=O)[O-])cc6c(=O)c3c45)c3c(=O)c4cc([N+](=O)[O-])ccc4n(c1=O)c23
Result Qualifier: =
Data Value: 7.96
--
Compound: CN(C)CCn1c(=O)c2ccc(NCCCN(C)CCCNc3ccc4c(=O)n(CCN(C)C)c(=O)n5c6ccc(O)cc6c(=O)c3c45)c3c(=O)c4cc(O)ccc4n(c1=O)c23
Result Qualifier: =
Data Value: 8.70

###

Property: log10 of IC50; scope: individual molecules
Tested on: PC-3
Assay Overview: Cytotoxicity against human PC3 cancer cell line was determined after 144 hr
Assay type: functional, cell-based
Assay Setup: PC-3, 144 h
Readout Type: log10 of IC50 (log10 of the value in nM)

Entry Smiles: CN(C)CCn1c(=O)c2ccc(NCCCN(C)CCCNc3ccc4c(=O)n(CCN(C)C)c(=O)n5c6ccc([N+](=O)[O-])cc6c(=O)c3c45)c3c(=O)c4cc([N+](=O)[O-])ccc4n(c1=O)c23
Study Target: PC-3
Data Value: 0.65
--
Entry Smiles: COc1ccc2c(c1)-c1nn(CCN(C)C)c3ccc(C(=O)NCCCN(C)CCCNC(=O)c4ccc5c6c(c7cc(OC)ccc7nc46)NN5CCN(C)C)c(c13)N2
Study Target: PC-3
Data Value: 1.59
--
Entry Smiles: CN(C)CCn1c(=O)c2ccc(NCCCN(C)CCCNc3ccc4c(=O)n(CCN(C)C)c(=O)n5c6ccc(O)cc6c(=O)c3c45)c3c(=O)c4cc(O)ccc4n(c1=O)c23
Study Target: PC-3
Data Value: -2.00
--
Entry Smiles: COc1ccc2c(c1)c(=O)c1c(NCCCN(C)CCCNc3ccc4c(=O)n(CCN(C)C)c(=O)n5c6ccc(OC)cc6c(=O)c3c45)ccc3c(=O)n(CCN(C)C)c(=O)n2c31
Study Target: PC-3
Data Value: 0.08
--
Entry Smiles: CN(C)CCN1Nc2c3ccccc3nc3c(C(=O)NCCCN(C)CCCNC(=O)c4ccc5c6c(c7ccccc7nc46)NN5CCN(C)C)ccc1c23
Study Target: PC-3
Data Value: 0.78
--
Entry Smiles: O=C1c2c(O)ccc(O)c2C(=O)c2c(NCCNCCO)ccc(NCCNCCO)c21
Study Target: PC-3
Data Value: 0.85
